Record set: IC50 | UniProt P28907 | literature, multiple sources.
Sequence (P28907 whole entry): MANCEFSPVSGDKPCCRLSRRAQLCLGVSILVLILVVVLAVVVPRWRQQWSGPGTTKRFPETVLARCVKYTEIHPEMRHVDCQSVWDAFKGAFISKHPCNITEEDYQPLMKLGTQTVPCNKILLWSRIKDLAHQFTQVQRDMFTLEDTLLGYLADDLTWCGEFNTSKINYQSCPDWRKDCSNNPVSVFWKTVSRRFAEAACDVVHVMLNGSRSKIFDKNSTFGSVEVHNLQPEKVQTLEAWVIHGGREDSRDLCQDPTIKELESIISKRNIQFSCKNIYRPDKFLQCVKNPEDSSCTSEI

Answered cases to consult:
Smiles Notation: O=C(NC1CCN(CCC(F)(F)F)CC1)c1nc(-n2ccnc2)nc2cc[nH]c12
Tested System: UniProt P28907
IC50: 10 to 100 nM
//
Smiles Notation: COCCO[C@H]1CC[C@H](Nc2cc(=O)n(C)c3ccc(-n4ccnc4)nc23)CC1
Tested System: UniProt P28907
IC50: 10 to 100 nM
//
Smiles Notation: O=C(N[C@H]1CC[C@H](CO)CC1)c1nc(-n2ccnc2)nc2cc[nH]c12
Tested System: UniProt P28907
IC50: < 10 nM
//
Smiles Notation: Cn1c(=O)cc(Nc2ccc(OCC(F)(F)F)nc2)c2cc(-n3ccnc3)ccc21
Tested System: UniProt P28907
IC50: 10 to 100 nM
//
Smiles Notation: COCCO[C@H]1CC[C@H](NC(=O)c2cc(C(F)(F)F)nc(-n3ccnc3)n2)CC1
Tested System: UniProt P28907
IC50: 39 nM
//
Smiles Notation: CN(CC(F)(F)F)[C@H]1CC[C@H](NC(=O)c2nc(-n3ccnc3)cc3cn[nH]c23)CC1
Tested System: UniProt P28907
IC50: 10 to 100 nM

Data request: What does the data say about its IC50? Entry: COCCOc1cccc(NC(=O)c2nc(-n3ccnc3)nc3cc[nH]c23)c1
Data returned: < 10 nM

Data request: Try the compound O=C(N[C@H]1CC[C@H](NC2COC2)CC1)c1nc(-n2ccnc2)cc2cn[nH]c12
Data returned: 10 to 100 nM

Data request: Try the compound O=C(Nc1ccncc1)c1nc(-n2ccnc2)nc2cc[nH]c12
Data returned: < 10 nM

Data request: Try the compound CN(CCC(F)(F)F)[C@H]1CC[C@H](NC(=O)c2nc(-n3ccnc3)nc3cc[nH]c23)CC1
Data returned: 10 to 100 nM

Data request: Try the compound O=C(Nc1cn[nH]c1)c1nc(-n2ccnc2)nc2cc[nH]c12
Data returned: < 10 nM

Data request: Try the compound N#CCO[C@H]1CC[C@H](NC(=O)c2nc(-n3ccnc3)nc3cn[nH]c23)CC1
Data returned: < 10 nM

Data request: Try the compound COCn1cc(NC(=O)c2nc(-n3ccnc3)nc3cc[nH]c23)cn1
Data returned: < 10 nM

Data request: Try the compound COCCO[C@H]1CC[C@H](NC(=O)c2cc(-n3ccnc3)cc3cc(C)[nH]c23)CC1
Data returned: 100 to 1000 nM

Data request: Try the compound O=C(N[C@H]1CC[C@H](NC2COC2)CC1)c1nc(-n2ccnc2)nc2cc[nH]c12
Data returned: 10 to 100 nM

Data request: Try the compound CC(C)(C#N)c1ccc(NC(=O)c2nc(-n3ccnc3)nc3cc[nH]c23)cc1
Data returned: < 10 nM

Data request: Try the compound [2H]c1nc([2H])n(-c2nc(C)cc(C(=O)N[C@H]3CC[C@H](OCCOC)CC3)n2)c1[2H]
Data returned: 14 nM
